# Tested On: Recombinant human liver GK (GST-GK) (Homo sapiens)
# Construct: made in house; host or cells: E. coli
# Sequence (P35557 1-466 isoform P35557-2): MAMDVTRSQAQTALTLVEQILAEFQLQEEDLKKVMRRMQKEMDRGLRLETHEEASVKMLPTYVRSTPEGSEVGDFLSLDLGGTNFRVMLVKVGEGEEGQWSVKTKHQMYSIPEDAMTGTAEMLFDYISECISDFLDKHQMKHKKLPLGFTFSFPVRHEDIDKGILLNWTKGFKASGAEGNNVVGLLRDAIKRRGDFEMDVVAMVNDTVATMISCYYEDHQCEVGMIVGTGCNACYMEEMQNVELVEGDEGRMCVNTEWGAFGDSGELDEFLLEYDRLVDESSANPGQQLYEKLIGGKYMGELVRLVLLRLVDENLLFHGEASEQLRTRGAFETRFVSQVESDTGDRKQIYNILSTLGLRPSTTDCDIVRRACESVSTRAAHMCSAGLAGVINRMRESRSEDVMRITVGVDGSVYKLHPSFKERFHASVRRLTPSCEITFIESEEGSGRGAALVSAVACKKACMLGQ
# Method: In vitro glucokinase activity assay (G6PDH-coupled NADH generation, OD 340 nm)
# Assay type: biochemical
# Particulars: concentration of activator that produced a 50% increase in the activity of GK; 5 mM D-glucose, 25° C.-30° C., pH 7.1
Endpoint: SC1.5 (µM)

Some compounds with known SC1.5 results, for comparison:
query_smiles=CC(C)O/N=C(/C(=O)Nc1nc2ccccc2s1)c1ccc(S(C)(=O)=O)c(Cl)c1 test_result=0.79
query_smiles=CC(C)CO/N=C(/C(=O)Nc1ccn(C)n1)c1ccc(S(C)(=O)=O)c(Cl)c1 test_result=5.3

1. CC(C)CO/N=C(/C(=O)Nc1nc2ccccc2s1)c1ccc(S(C)(=O)=O)c(Cl)c1
2. Cn1ccc(NC(=O)/C(=N/OC2CCCCC2)c2ccc(S(C)(=O)=O)c(Cl)c2)n1
3. CS(=O)(=O)c1ccc(/C(=N\OC2CCCC2)C(=O)Nc2nc3ccccc3s2)cc1Cl
Query :: I would appreciate it if you could sort these 3 compounds by SC1.5, starting from the smallest number. Sort the labels as requested; that list is your answer.
Result :: 3, 1, 2

###

# Tested On: Recombinant human liver GK (GST-GK) (Homo sapiens)
# Construct: made in house; host or cells: E. coli
# Method: In vitro glucokinase activity assay (G6PDH-coupled NADH generation, OD 340 nm)
# Assay type: biochemical
# Particulars: concentration of activator that produced a 50% increase in the activity of GK; 5 mM D-glucose, 25° C.-30° C., pH 7.1
Endpoint: SC1.5 (µM)

compound="CS(=O)(=O)c1ccc(/C(=N\\OC2CCCCC2)C(=O)Nc2ncc(C(N)=O)s2)cc1Cl [Example 12]" endpoint=SC1.5 test_result=1.1

1. O=C(Nc1nc2ccccc2s1)/C(=N/OC1CCCC1)c1ccc(Cl)c(Cl)c1 [Example 19]
2. CS(=O)(=O)c1ccc(/C(=N\OC2CCCC2)C(=O)Nc2ccn(Cc3cccnc3)n2)cc1Cl [Example 31]
3. Cc1nsc(NC(=O)/C(=N/OC2CCCCC2)c2ccc(S(C)(=O)=O)c(Cl)c2)n1 [Example 10]
4. CS(=O)(=O)c1ccc(/C(=N\OC2CCCC2)C(=O)Nc2nc3ccc(Cl)cc3s2)cc1Cl [Example 23]
Query :: I would appreciate it if you could sort these 4 compounds by SC1.5, starting from the smallest number. Sort the labels as requested; that list is your answer.
Result :: 2, 4, 3, 1
